Reference source: patent US20130072519A1

For each of the compounds below, state its IC50.
System: Apolipoprotein B Secretion from HepG2 Cells
assay_name: Inhibition of Apolipoprotein B secretion from HepG2 cells (ELISA)
Assay type: cell-based, human
measurement_context: Homo sapiens, HepG2, HepG2 cells, 22-24 hours incubation, ApoB ELISA; Low/High IC50 columns give the 95% confidence interval
One number for each entry, in nM.

compound="CCOC(=O)C1(COC(=O)Cc2ccc(NC(=O)c3ccccc3-c3ccc(C(F)(F)F)cc3)c(C(=O)N(C)C)c2)CCCc2ccccc21 (racemic) [Example 41]" meas_value=0.701

Batch of 2 compounds: report IC50 for each.
1. CCOC(=O)C1(COC(=O)Cc2ccc(NC(=O)c3ccccc3-c3ccc(C(F)(F)F)cc3)c(C(=O)N(C)C)c2)NC(=O)c2ccccc21 (racemic)
2. CCOC(=O)C1(COC(=O)Cc2ccc(NC(=O)c3ccccc3-c3ccc(C(F)(F)F)cc3)c(C(=O)N(C)C)c2)OC(=O)c2ccccc21 (racemic)

1. 16.5
2. 6.5
